- Species on record: Rattus norvegicus
- protocolDetails: Open TG-GATES - Regimen: Single
- Format: toxicity, organism-based, Sprague-Dawley
- Design: regimen Single, gender Male, age 6 weeks
- cond: in vivo, po, 1000 mg/kg, 9 h, tissue Plasma, route gavage, dose level High
Measured IP of individual entries
Please respond with the number in mg/dL and leave the unit unwritten.

# molecule, IP, mg/dL
rows = [
    ("COC1=CC(=O)C[C@@H](C)[C@]12Oc1c(Cl)c(OC)cc(OC)c1C2=O", 10.1),
]

Recorded IP for NC(N)=Nc1nc(CSCCC(N)=NS(N)(=O)=O)cs1 , please?
9

Dear colleague, I am looking for the recorded IP of the following molecule: COc1ccc2[nH]c([S+]([O-])Cc3ncc(C)c(OC)c3C)nc2c1 (stereo not given)
10

What value of measured IP is listed for CC(C)OC(=O)C(C)(C)Oc1ccc(C(=O)c2ccc(Cl)cc2)cc1 [FENOFIBRATE] ?
8.5

Tell me the measured IP of CCOC(=O)CCC(=O)O[C@H]1[C@H](O[C@@H]2[C@@H](C)[C@H](O[C@H]3C[C@@](C)(OC)[C@@H](O)[C@H](C)O3)[C@@H](C)C(=O)O[C@H](CC)[C@@](C)(O)[C@H](O)[C@@H](C)C(=O)[C@H](C)C[C@@]2(C)O)O[C@H](C)C[C@@H]1N(C)C [ERYTHROMYCIN ETHYLSUCCINATE] , please.
9.7
